# assay_summary: amyloid nucleation score (Sup35N fusion, yeast selection) (log enrichment); library NNK3; higher = more nucleation; inactive = no reads after selection;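 further: zero at mode of non-aggregating sequences after 7 days selection at 30°C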
Listed below: amyloid nucleation score values for each entry.
readout_kind: amyloid nucleation score

substance=GWMNACT measured_value=0.356
substance=DKNNLIFFLRAVCYFSSERT measured_value=1.08
substance=NRQFSDSLYRRACAMKEDCL measured_value=0.643
substance=SSSVRMRCSCISLASNKCAY measured_value=1.26

====

# assay_summary: amyloid nucleation score (Sup35N fusion, yeast selection) (log enrichment); library NNK1; higher = more nucleation; inactive = no reads after selection
Each entry gets not met if its amyloid nucleation score stays under 1, and met if its amyloid nucleation score is 1 or above.

seq_string=TVEYNRPFCRFIFCGSGYRH label_value="not met"
seq_string=TFGTKRRLGL label_value=met
seq_string=FRSELMFSVLPFLGASSVAC label_value=met
seq_string=KLPIAGCYRVINCTVRGE label_value="not met"
seq_string=GNLLRTSIDRLLYSWSTIVV label_value="not met"
seq_string=LFVTCPHLSTQ label_value=met
seq_string=NVWIYPDSMKSNQTDLG label_value=met
seq_string=LTYSPWGCWIYMCYGERFWR label_value=met
seq_string=SCYDVIVRWDFFLQQFCKMQ label_value=met

====

# assay_summary: amyloid nucleation score (Sup35N fusion, yeast selection) (log enrichment); library NNK3; higher = more nucleation; inactive = no reads after selection
readout_kind: amyloid nucleation score

substance=RWKLFWIHDR readout_kind="amyloid nucleation score" measured_value=1.16
substance=PRGMPIAIFSDWCRLRWGVF readout_kind="amyloid nucleation score" measured_value=inactive
substance=CNVRFCIDFMIFMVISDSKD readout_kind="amyloid nucleation score" measured_value=1.11
substance=VALWGSWRRPWDAVAFDRTG readout_kind="amyloid nucleation score" measured_value=inactive
substance=VLSFLPCGLIPIISVALWCC readout_kind="amyloid nucleation score" measured_value=1.17
substance=LIKVTS readout_kind="amyloid nucleation score" measured_value=inactive
substance=ALVVSTWYSPGDMDLTPLHW readout_kind="amyloid nucleation score" measured_value=inactive
substance=IYRTPSADDLSRDAYIGFYR readout_kind="amyloid nucleation score" measured_value=inactive
substance=LNSTVSGKFMLL readout_kind="amyloid nucleation score" measured_value=0.078
substance=TPGNNSYAVLMLNELTYKPA readout_kind="amyloid nucleation score" measured_value=0.92
substance=CLFVCDYGLFECGQMVVEVY readout_kind="amyloid nucleation score" measured_value=inactive
substance=NRSCRDFRYY readout_kind="amyloid nucleation score" measured_value=inactive
substance=NRRGSSVVRI readout_kind="amyloid nucleation score" measured_value=inactive
substance=LVVTTPLRRGKDLDSMRYTC readout_kind="amyloid nucleation score" measured_value=inactive
substance=LKIWGRFITGETV readout_kind="amyloid nucleation score" measured_value=inactive
substance=VANIFVVISIVGVDTRLFIV readout_kind="amyloid nucleation score" measured_value=0.519
substance=KDCMVYWLRI readout_kind="amyloid nucleation score" measured_value=inactive
substance=NQCIAYYGISRLWQM readout_kind="amyloid nucleation score" measured_value=inactive
substance=RGMFTFNYMNWGKDLLRPRL readout_kind="amyloid nucleation score" measured_value=inactive
substance=RHGSCMTVCVYSSMLSYRST readout_kind="amyloid nucleation score" measured_value=0.163
substance=RNMNLLSMHIGLISLFSGEL readout_kind="amyloid nucleation score" measured_value=1.81
substance=YKWARYVFTTDNYFWVPAGY readout_kind="amyloid nucleation score" measured_value=inactive
substance=SRTYKHKALAQFPYKYWCVP readout_kind="amyloid nucleation score" measured_value=inactive
substance=GGNGVPRVWSVFIRRVWNSV readout_kind="amyloid nucleation score" measured_value=inactive
substance=YSSFAANSCFLERVEVKSDL readout_kind="amyloid nucleation score" measured_value=inactive
substance=AVSRDCELYKVEYYLVQ readout_kind="amyloid nucleation score" measured_value=inactive
substance=RDIISMIVGWVLLQYLTTTY readout_kind="amyloid nucleation score" measured_value=-0.888
substance=KINDCYGYYDLYWNWSIVRF readout_kind="amyloid nucleation score" measured_value=inactive
substance=VGNYINVANMYSWGVIIRND readout_kind="amyloid nucleation score" measured_value=2.39
substance=TSSAHNTRSCLMM readout_kind="amyloid nucleation score" measured_value=inactive
substance=EILRMCH readout_kind="amyloid nucleation score" measured_value=inactive
substance=INVPLALLSYGV readout_kind="amyloid nucleation score" measured_value=inactive
substance=CVLAFVVVLLGWGHSSGAGG readout_kind="amyloid nucleation score" measured_value=0.825
substance=GGSSYTYHNSVDLLDWFCYV readout_kind="amyloid nucleation score" measured_value=1.23
substance=KRNRRTISLMTKFIMGKPGY readout_kind="amyloid nucleation score" measured_value=inactive
substance=LQGVFRMSQISG readout_kind="amyloid nucleation score" measured_value=inactive

====

# assay_summary: amyloid nucleation score (Sup35N fusion, yeast selection) (log enrichment); library NNK1; higher = more nucleation; inactive = no reads after selection
Class assignment keyed on amyloid nucleation score, ranges bin 0 (below 0.02), bin 1 (0.02 to below 0.9), bin 2 (0.9 or more)

substance=IYSNEELIMRVVNQY label_value="bin 1"
substance=TSSDCLLDSSIFNVGKFWYV label_value="bin 0"
substance=NSIVWSMC label_value="bin 1"
substance=FVIDACIFC label_value="bin 2"
substance=CSTFRVDFFSPCFLL label_value="bin 2"
substance=VRRIAWSNGWCRGIGGRSVL label_value="bin 0"
substance=YSMLQFWDRAAMSV label_value="bin 0"
substance=FKCKSDAPWPWLHSL label_value="bin 2"
substance=GVRETHLPSMLRRTALRFTF label_value="bin 1"
substance=QRSLMDAPMGKPRESNLLLV label_value="bin 2"
substance=RFWAACSFTDGR label_value="bin 2"
substance=PYRYKSGWATTQSLRREQLD label_value="bin 0"
substance=GWWGHGFALRSFVLIAHLDV label_value="bin 1"
substance=WLGVNDSLGFICEAVGWYGW label_value="bin 1"
substance=SWLVPR label_value="bin 0"
substance=DKTGLGRRGPIIFSLSFRWS label_value="bin 0"
substance=AFPQFLGCLVIFQSHGRRER label_value="bin 2"
substance=VEPLCGTRFACRLNAFKTTG label_value="bin 0"
substance=FNLGTNK label_value="bin 0"
substance=TYGEYRTYISYH label_value="bin 1"
substance=GLSTMQCVNICFWSYVTW label_value="bin 2"
substance=SELWDLG label_value="bin 0"
substance=GSKGMGSERQVECFTKI label_value="bin 0"
substance=CQIPVFENYFLHLGWSYAPL label_value="bin 1"
substance=SCNSIGTCTLFKLHSLLS label_value="bin 1"
substance=CCLTILSIS label_value="bin 0"
substance=HSALIQSIEGVINVGCGVKK label_value="bin 2"
substance=ALRAHHSL label_value="bin 1"
substance=RTCVIVKMNSTIALYLGQKE label_value="bin 2"
substance=AYSRNYYQYAVNEFGDVVFE label_value="bin 1"
substance=LMWNLTLS label_value="bin 2"
substance=TRTNELF label_value="bin 1"
substance=GGYWWQDRRHGPILYLVFWA label_value="bin 1"

====

# assay_summary: amyloid nucleation score (Sup35N fusion, yeast selection) (log enrichment); library NNK1; higher = more nucleation; inactive = no reads after selection
Each entry gets not met if its amyloid nucleation score stays under -0.1, and met if its amyloid nucleation score is -0.1 or above.

substance=TFTLNFCGLQF label_value=met
substance=LFVLLQHLAATFYVQVLTSR label_value=met
substance=VSYFVHIC label_value=met
substance=DYFIKWFIYRPLTS label_value="not met"
substance=FSMVAPTVILLKYYN label_value="not met"
substance=SFVVHVICGHVCSWSFSVWF label_value=met
substance=GMQIKYNLCSRKTLVENGIS label_value=met
substance=WPCPVVRFLPWKNYISGYSF label_value=met
substance=AFQESRGQSNWYIYMLVHTS label_value=met
substance=WREGDI label_value="not met"
substance=FLPLMIASVSWRL label_value=met
substance=VSLRAAWNLC label_value=met
substance=IVEMHYMAGWTGMEMMSWAH label_value=met
substance=VFLMLEVCLMV label_value=met
substance=FLYSSLFDKVNCCNRPPVSS label_value=met
substance=VRRGTVFAVGTCYIGRWFAV label_value=met
substance=SYKLAVIRKM label_value="not met"
substance=LNSLNVGLVEDKQYILYER label_value=met
substance=YVPMRETGCRDSTYIEWFWY label_value=met
substance=SRATVSFVSLGNLTFGTILC label_value=met
substance=WLGYMDMDNGARQNQYSETG label_value="not met"
substance=MYMIWEQGKPCSILDTHTVT label_value=met
substance=GSRYHEECRWTCREAPTDAR label_value="not met"
substance=GESRGS label_value=met
substance=NNMSIWGMTVTEYLFITNMN label_value=met
substance=WWNIEEM label_value="not met"
substance=VYLFSVLVDVSRMSNGMLTR label_value="not met"
substance=DSAIWDKNFSLDMGSGFMHC label_value="not met"
substance=RSEGKNMADS label_value="not met"
substance=VRKSVSTFT label_value=met
substance=NTIRFAHLLV label_value="not met"
substance=QGKISGNRRSFFWW label_value="not met"
substance=ELRSIDTWYPASGCML label_value="not met"
substance=TYRNHYCKDKAL label_value=met
substance=SCSWFFTYIVVAVNTLSISY label_value="not met"
substance=HGLAYCGRQLFGARFILRYR label_value=met
substance=EEYNVNCTSFVGRFSRC label_value=met
